- experimental.system: human FEN1 (Homo sapiens, UniProt P39748)
- Sequence (P39748 whole entry): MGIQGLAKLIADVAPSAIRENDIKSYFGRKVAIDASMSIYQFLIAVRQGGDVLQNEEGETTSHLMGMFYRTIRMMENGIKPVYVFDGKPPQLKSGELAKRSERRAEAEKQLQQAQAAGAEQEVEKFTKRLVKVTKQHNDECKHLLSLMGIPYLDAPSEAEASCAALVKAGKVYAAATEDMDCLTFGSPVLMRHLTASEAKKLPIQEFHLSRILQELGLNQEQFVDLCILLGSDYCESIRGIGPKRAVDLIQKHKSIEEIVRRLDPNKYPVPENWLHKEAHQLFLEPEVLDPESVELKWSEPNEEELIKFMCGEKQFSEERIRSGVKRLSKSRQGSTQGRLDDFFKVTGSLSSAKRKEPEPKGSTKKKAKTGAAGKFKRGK
- experiment.description: Kinetic fluorogenic
- Type: biochemical
- details: read-out: average IC50; average of the fluorogenic and AlphaScreen assays
measured.property: pIC50
Schema: pIC50 number; meaning minus log10 of the concentration expressed in molar units.

Given `O=C(O)c1cc[c]([Sb](=[O])([OH])[OH])cc1[N+](=O)[O-]` , state its recorded pIC50.
6.03

====

- experimental.system: human FEN1 (Homo sapiens)
- experiment.description: Kinetic fluorogenic
- Type: biochemical
- details: average IC50, average of the fluorogenic and AlphaScreen assays
measured.property: pIC50
Schema: pIC50 number; meaning minus log10 of the concentration expressed in molar units.

Given O=C(O)C1=CC(=C(c2ccc(O)c(C(=O)O)c2)c2ccc(O)c(C(=O)O)c2)C=CC1=O [ATA, aurintricarboxylic acid] , state its recorded pIC50.
6.23
